System: LPESG (Abz-LPESGK(Dnp)-CONH2)
Method description: In vitro sortase kinetics HPLC assay, LPESG substrate
Type: biochemical
Assay setup: substrate 4S (LPESG), 1 mM; GGG varied
Observable: kHydrolysis (Hz)
Could you give me the number in Hz? Just the number is fine.

Look over these answered cases.
>  <Molecule>
4S.6B: 5mut + N98D A104V A118S F122A K134P I182V E189P (protein) QAKPQIPKDKSKVAGYIEIPDADIKEPVYPGPATREQLDRGVSFVEENESLDDQNISISGHTAIDRPNYQFTNLPAAKKGSMVYFKVGNETRKYKMTSIRNVKPTAVEVLDEQKGKDKQLTLVTCDDYNPETGVWETRKIFVATEVK

>  <kHydrolysis (Hz)>
0.0167

$$$$
>  <Molecule>
4S.6A: 5mut + N98D A104V A118S F122A K134G I182V E189V (protein) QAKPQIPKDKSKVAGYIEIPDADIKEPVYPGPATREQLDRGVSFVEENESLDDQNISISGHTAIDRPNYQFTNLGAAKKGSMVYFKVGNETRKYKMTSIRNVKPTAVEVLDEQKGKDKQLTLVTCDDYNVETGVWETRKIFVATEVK

>  <kHydrolysis (Hz)>
0.06696

$$$$
>  <Molecule>
eSrtA(4S-5): 5mut + N98D A104V A118T F122A K134R I182V (protein) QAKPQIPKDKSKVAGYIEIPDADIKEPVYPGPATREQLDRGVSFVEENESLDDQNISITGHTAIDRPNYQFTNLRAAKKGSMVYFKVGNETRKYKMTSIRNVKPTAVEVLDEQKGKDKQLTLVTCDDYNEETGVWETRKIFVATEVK

>  <kHydrolysis (Hz)>
0.009551

$$$$

Now look at this one.
Enquiry: For the molecule shown here, 4S.6C: 5mut + N98D A104V A118T F122A K134R I182V E189F (protein) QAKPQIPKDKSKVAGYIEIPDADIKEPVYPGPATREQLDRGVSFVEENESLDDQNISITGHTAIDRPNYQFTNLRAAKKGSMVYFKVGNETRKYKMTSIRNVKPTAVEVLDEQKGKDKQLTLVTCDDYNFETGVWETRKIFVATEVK , give the reported kHydrolysis (Hz).
Return: 0.01399

Where these numbers come from: patent US10202593B2
